system: HeLa; test: Primary qHTS to identify gynecologic anti-cancer compounds using libraries of approved drugs and bioactive compounds (AID 1345084); conditions: Gynecologic cancer cell panel viability, ATPlite luminescence, 48 h; series mostly up to 57.5 µM; note: % is set by controls: 0 for no effect and ±100 for the full control effect; nearly all actives have a fitted effect of over 55% in size
Records with an inconclusive call do not appear. The source made the active and inactive calls. Calls come from the whole dose curve; as a rule, active = well fitted cell-killing curve with a large enough effect; inconclusive = small, poorly fitted or top-dose-only effect, or effect the other way; inactive = flat fitted curve, though single readings scatter.
test_readout: activity change, negative = cytotoxicity

These recorded examples may help you get a feel for the data.
1. CC(=O)NC1CC(=O)C23C(=O)NC(Cc4c[nH]c5ccccc45)C2C(C)=C(C)C(O)C3/C=C/CC(C)/C=C(/C)C(O)C1O (stereo unspecified) ... inactive
2. O=C(O)c1cccc(C(=O)CCC2OC(n3cnc4c(=O)[nH]cnc43)C(O)C2O)c1 (stereo unspecified) ... inactive
3. CC(CC(C)O[C@@H]1O[C@H](CO)[C@@H](O)[C@H](O)[C@H]1O)OC(=O)/C=C/c1ccc(O)cc1 (stereo partly specified) ... inactive
4. CC1(C)CC[C@]2(C(=O)O[C@@H]3O[C@H](CO[C@@H]4O[C@H](CO)[C@@H](O)[C@H](O)[C@H]4O)[C@@H](O)[C@H](O[C@@H]4O[C@H](CO)[C@@H](O)[C@H](O)[C@H]4O)[C@H]3O)CC[C@]3(C)C(=CCC4[C@@]5(C)CC[C@H](O[C@@H]6OC[C@@H](O)[C@H](O)[C@H]6O)[C@@](C)(C(=O)O)C5CC[C@]43C)[C@@H]2C1 (stereo partly specified) ... 13.2% [at 11.6 µM] (inactive)
5. CC[C@@H](Nc1c(Nc2cccc(C(=O)N(C)C)c2O)c(=O)c1=O)c1ccc(C)o1 ... inactive
6. C[C@H]1[C@@H](O)[C@H](O)C2[C@]3(C)C([C@@H](O)[C@H]4OC(=O)[C@@H]1[C@@]24C)[C@](C)(O)C=C[C@H]3O[C@@H]1O[C@H](CO)[C@@H](O)[C@H](O)[C@H]1O (stereo partly specified) ... inactive
7. OC[C@H]1O[C@@H](O[C@H]2[C@H](O)[C@@H](CO)O[C@@H](OCc3ccccc3)[C@@H]2O[C@@H]2OC[C@](O)(CO)[C@H]2O)[C@H](O)[C@@H](O)[C@@H]1O ... inactive
8. C[C@@H]1O[C@@H](O[C@H]2[C@H](O)[C@@H](O)[C@H](OC(=O)[C@]34CCC(C)(C)C[C@H]3C3=CCC5[C@@]6(C)CC[C@H](O[C@@H]7O[C@H](C(=O)O)[C@@H](O)[C@H](O)[C@H]7O)C(C)(C)C6CC[C@@]5(C)[C@]3(C)CC4)O[C@@H]2CO)[C@H](O)[C@H](O)[C@H]1O (stereo partly specified) ... -21.7% [at 11.6 µM] (inactive)
9. CC(=O)OC(C)(C)/C=C/C(=O)[C@](C)(O)C1[C@H](O)C[C@@]2(C)[C@@H]3CC=C4[C@@H](C[C@H](O[C@@H]5O[C@H](CO)[C@@H](O)[C@H](O)[C@H]5O)C(=O)C4(C)C)[C@]3(C)C(=O)C[C@]12C (stereo partly specified) ... inactive
10. CC1=COC(OC2OC(CO)C(O)C(O)C2O)C2C(CO)CC(OC(=O)/C=C/c3ccc(O)cc3)C12 (stereo unspecified) ... inactive

Please find the next compound below.
-- ask For C=C1CCC2C(C)(C(=O)O)CCCC2(C)C1CC/C(C)=C\CO (stereo unspecified) , what is its reported activity change, negative = cytotoxicity?
-- reply inactive

Origin of measurements: PubChem BioAssay (NCATS)
